B1: library; numbered along this chain (parent)
chain: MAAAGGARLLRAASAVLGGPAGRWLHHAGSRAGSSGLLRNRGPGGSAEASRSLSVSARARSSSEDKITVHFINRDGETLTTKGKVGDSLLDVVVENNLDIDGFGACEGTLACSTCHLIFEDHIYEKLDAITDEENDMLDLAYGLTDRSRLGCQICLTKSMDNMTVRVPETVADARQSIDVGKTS

- Variants of: B1
- test_name: scaled log2 fold change in cell abundance, elesclomol vs control (0 = silent mean, 1 = nonsense mean) (scaled log2 ratio); higher = higher viability under elesclomol (loss of FDX1 cuproptosis function);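 further: variant abundance is its share of total variant reads in each endpoint sample, from next-generation sequencing of the integrated ORF PCR-amplified out of genomic DNA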
- recorded_conditions: with HEK293T FDX1 KO; elesclomol 40 nM; glucose 10 mM; 11 days
Use 0.3 as the dividing line for scaled log2 fold change, with the line itself on the Y side and lower values as N.

// below: answered variants
variant_id=H116I qualitative_label=N
variant_id=L79E qualitative_label=N
variant_id=G45I qualitative_label=N
variant_id=C115F qualitative_label=Y
variant_id=A49G qualitative_label=Y

Problem: Could you tell me if the measured scaled log2 fold change of K82N reaches 0.3 or more?
Result: Y

Problem: Could you please find out whether L37H has scaled log2 fold change that meets 0.3 or exceeds it?
Result: N

Problem: Entry E107Y : is its scaled log2 fold change no less than 0.3?
Result: N
